biological target: human NLRP3 (Homo sapiens, UniProt Q96P20); experiment: Human PBMC NLRP3 Assay (LPS priming, ATP stimulation, cytokine measurement); format: cell-based; set-up: host or cells: human PBMCs (A2); human whole blood from healthy volunteers (A3); details: Table C; human PBMC, LPS + ATP
Sequence (Q96P20 whole entry): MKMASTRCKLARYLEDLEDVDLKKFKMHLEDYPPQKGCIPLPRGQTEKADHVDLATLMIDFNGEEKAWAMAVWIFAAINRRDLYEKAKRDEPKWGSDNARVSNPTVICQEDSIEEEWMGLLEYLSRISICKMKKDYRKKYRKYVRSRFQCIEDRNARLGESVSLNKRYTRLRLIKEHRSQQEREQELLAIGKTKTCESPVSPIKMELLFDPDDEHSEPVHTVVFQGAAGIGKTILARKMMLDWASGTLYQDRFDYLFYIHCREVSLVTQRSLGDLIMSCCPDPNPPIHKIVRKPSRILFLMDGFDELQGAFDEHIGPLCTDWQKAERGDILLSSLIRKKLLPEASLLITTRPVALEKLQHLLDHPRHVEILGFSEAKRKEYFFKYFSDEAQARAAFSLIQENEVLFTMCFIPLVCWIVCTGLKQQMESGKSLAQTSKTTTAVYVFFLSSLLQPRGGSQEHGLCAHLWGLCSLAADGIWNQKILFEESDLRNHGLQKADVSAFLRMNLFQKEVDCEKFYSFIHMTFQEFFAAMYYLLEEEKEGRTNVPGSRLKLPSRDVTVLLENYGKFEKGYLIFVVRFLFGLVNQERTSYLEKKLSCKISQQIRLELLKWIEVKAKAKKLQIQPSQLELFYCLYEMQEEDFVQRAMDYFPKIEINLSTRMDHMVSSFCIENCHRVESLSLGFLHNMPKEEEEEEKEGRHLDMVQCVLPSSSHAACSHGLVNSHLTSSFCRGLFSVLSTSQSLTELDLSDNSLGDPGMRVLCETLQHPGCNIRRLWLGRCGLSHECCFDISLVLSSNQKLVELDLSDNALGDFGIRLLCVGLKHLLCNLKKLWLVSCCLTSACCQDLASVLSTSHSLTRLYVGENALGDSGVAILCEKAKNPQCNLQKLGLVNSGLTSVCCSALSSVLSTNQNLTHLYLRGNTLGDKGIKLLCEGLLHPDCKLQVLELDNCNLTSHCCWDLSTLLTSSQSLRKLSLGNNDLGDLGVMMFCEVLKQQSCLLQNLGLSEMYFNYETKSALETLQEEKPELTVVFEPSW
quantity kind: IC50 (µM)
API: value field is a number in µM; no unit string.

# annotated cases, reported IC50 shown
INSERT INTO results (compound, observed_result) VALUES
  ('CN(C(=O)N(C)[C@@H]1CCCN(c2nnn[nH]2)C1)c1ccc(Cl)cc1 [Comparative Example C2, reference compound]', 58.1),
  ('CN(C(=O)N[C@@H]1CCCN(c2nnn[nH]2)C1)c1ccc(Cl)cc1F', 0.892),
  ('CN(C(=O)N[C@@H]1CCCN(c2nnnn2C)C1)c1ccc(Cl)cc1 [Comparative Example F, reference compound]', 15.5),
  ('C[C@@H]1CCN(c2nnn[nH]2)C[C@H](NC(=O)N(C)c2ccc(Cl)cc2F)C1 (single isomer, unassigned)', 0.004);

Next item in the queue.
Q: Please report the measured IC50 for "CN(C(=O)N[C@@H]1CCCN(c2nnn[nH]2)C1)c1ccc(Cl)cc1"
A: 0.268
